# procedure-details: Metabolic stability in mouse liver S9 fraction assessed as half life at 1 uM in presence of NADPH measured upto 60 min by LC-MS/MS analysis
# Type: ADME, subcellular
Param threshold (20 min) applies to half-life at 1 µM; output label 1 when value >= threshold, label 0 when value < threshold.

{"columns": ["smiles-representation", "answer-label"],
 "data": [
  ["Cc1ccccc1N(C)C(=O)c1ccc(-c2ccc(OS(N)(=O)=O)cc2)o1", "label 1"],
  ["NS(=O)(=O)Oc1ccc2c3c(c(=O)oc2c1)CCCCC3", "label 0"],
  ["Cc1c(F)cccc1N(C)C(=O)c1ccc(-c2ccc(OS(N)(=O)=O)cc2)o1", "label 0"],
  ["Cc1ccccc1N(C)C(=O)c1csc(-c2ccc(OS(N)(=O)=O)cc2)n1", "label 0"],
  ["Cc1ccccc1N(C)C(=O)c1ccc(-c2ccc(OS(N)(=O)=O)c(Cl)c2)o1", "label 1"],
  ["Cc1ccccc1N(C)C(=O)c1coc(-c2ccc(OS(N)(=O)=O)cc2)n1", "label 1"],
  ["Cc1ccccc1N(C)C(=O)c1ccc(-c2ccc(OS(N)(=O)=O)cc2F)o1", "label 1"],
  ["Cc1ccc(F)cc1N(C)C(=O)c1ccc(-c2ccc(OS(N)(=O)=O)cc2)o1", "label 0"],
  ["Cc1ccccc1N(C)C(=O)c1ccc(-c2ccc(OS(N)(=O)=O)c(F)c2)o1", "label 0"],
  ["Cc1cc(F)ccc1N(C)C(=O)c1ccc(-c2ccc(OS(N)(=O)=O)cc2)o1", "label 0"]
]}
